- assay-summary: clinical
- run-conditions: female, human, in vivo, po, 400 mg, Mean plasma AUCinf
experimental-endpoint: AUC(0-inf) (µM·h)

> print(dat)
       cpd.smiles  obs.value
1  NCCc1ccc(O)cc1      0.528

----------
Reported Cmax values are given for each entry in this list.
- assay-summary: clinical
- run-conditions: human, in vivo, po, 400 mg
experimental-endpoint: Cmax

> print(dat)
                                   compound   obs.value
1  O=C(O)Cc1ccc(O)cc1 [4-HPAA, 4-hydroxyphenylacetic acid]  9040 ng/mL
2       NCCc1ccc(O)cc1 [Tyramine, tyramine]    87 ng/mL

----------
- assay-summary: clinical
- run-conditions: human, in vivo, po, 400 mg
- Procedure: In this open-label pharmacokinetic/pharmacodynamic study, pharmacokinetics and effects of 400 mg oral tyramine were analysed in relation to MAO-A, CYP2D6, and OCT1 genotypes in 88 healthy volunteers. […] Plasma and urine concentrations of tyramine and 4-HPAA were analysed by HPLC with tandem mass spectrometry using tyramine-d4 (Santa Cruz Biotechnology, Inc., Dallas, TX, USA) as internal standard. […]
Reported half-life values are given for each entry in this list.
experimental-endpoint: half-life (h)

> print(dat)
                                   compound  experimental.endpoint  unit.abbreviation  obs.value
1                            NCCc1ccc(O)cc1              half-life                  h      0.917
2  O=C(O)Cc1ccc(O)cc1 [4-HPAA, 4-hydroxyphenylacetic acid]              half-life                  h       1.22

Data provenance: paper PMC6831736
